# Assay System: MRGD (Homo sapiens)
# Sequence (Q8TDS7 whole entry): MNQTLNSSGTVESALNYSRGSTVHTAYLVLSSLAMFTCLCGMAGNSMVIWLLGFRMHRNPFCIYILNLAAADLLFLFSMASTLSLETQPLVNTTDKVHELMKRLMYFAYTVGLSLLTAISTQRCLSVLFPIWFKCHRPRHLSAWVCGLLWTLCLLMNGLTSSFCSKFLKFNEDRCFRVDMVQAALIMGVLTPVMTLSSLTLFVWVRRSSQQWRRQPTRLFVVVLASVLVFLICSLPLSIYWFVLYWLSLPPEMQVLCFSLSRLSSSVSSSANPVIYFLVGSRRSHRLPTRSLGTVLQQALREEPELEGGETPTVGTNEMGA
# Assay Summary: Calcium mobilization in MRGD over-expressing cells
# Assay type: cell-based
# Set-up: host or cells: ChemiScreen over-expressing cell line, given as 'HEK 293T cells (Chem-1, EMD Millipore)'
# Test Context: Example 7, FIG. 12; read-out: half maximal effective concentration (EC50)
pEC50: −log10 of the molar value.
Parameter: pEC50

For NCCCC(=O)O [GABA, gamma amino butyric acid, reference compound] the molecule record lists pEC50 as ~4.17
